Recorded measurements of inhibition at 1 µM, one per entry
target: 11β-HSD1 (Homo sapiens, UniProt P28845); construct: expressed in transfected cells; host or cells: HEK 293 (stably transfected, HEK 293/HSD11B1); assay: 11β-HSD1 HEK assay (cell based assay, SPA); details: HEK293; at 1 μM; whole HEK 293 cells stably transfected with the HSD11B1 gene, 3H-cortisone substrate; read-out: Activity (inhibition of 11β-HSD1)
Sequence (P28845 whole entry): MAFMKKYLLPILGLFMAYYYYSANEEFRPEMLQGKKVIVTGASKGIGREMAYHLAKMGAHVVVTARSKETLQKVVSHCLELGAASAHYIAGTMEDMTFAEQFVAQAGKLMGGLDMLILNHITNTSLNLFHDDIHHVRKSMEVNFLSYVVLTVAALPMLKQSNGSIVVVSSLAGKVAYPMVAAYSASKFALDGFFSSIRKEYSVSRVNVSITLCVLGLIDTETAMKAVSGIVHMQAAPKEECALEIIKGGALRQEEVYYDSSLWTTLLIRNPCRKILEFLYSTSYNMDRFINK

The following compounds have reported results that may help.
{"Compound": "O=C(CSc1ccc(C(F)(F)F)cn1)C12CC3CC(CC(C3)C1)C2", "inhibition at 1 µM": "> 60%"}
{"Compound": "O=C(C[S+]([O-])Cc1ccccn1)C12CC3CC(CC(C3)C1)C2 (centres unmarked)", "inhibition at 1 µM": "> 60%"}
{"Compound": "Cc1ccc(OCC(=O)C(C)(C)c2ccc(Cl)cc2)cn1", "inhibition at 1 µM": "> 60%"}
{"Compound": "O=C(CCc1cccnc1)C12CC3CC(CC(C3)C1)C2", "inhibition at 1 µM": "> 60%"}

Below: the item to evaluate.
Field request: inhibition at 1 µM | item: Cn1cnnc1[S+]([O-])CC(=O)C1(c2ccc(Cl)cc2)CCC1 (centres unmarked) < 20%

---

biological target: 11β-HSD1 (Homo sapiens); construct: expressed in transfected cells; host or cells: HEK 293 (stably transfected, HEK 293/HSD11B1); experiment: 11β-HSD1 HEK assay (cell based assay, SPA); conditions: HEK293; at 1 μM; whole HEK 293 cells stably transfected with the HSD11B1 gene, 3H-cortisone substrate; read-out: Activity (inhibition of 11β-HSD1)
Recorded Metric: inhibition at 1 µM

// known answers, use as guide
{"Molecule": "O=C(CS(=O)(=O)c1ccccn1)C1(c2ccc(Cl)cc2)CCCCC1", "Result": "20 to 60%"}
{"Molecule": "Cn1cnnc1[S+]([O-])CC(=O)C12CC3CC(CC(C3)C1)C2 (centres unmarked)", "Result": "> 60%"}

Need inhibition at 1 µM, item Cc1nnc(SCC(=O)C23CC4CC(CC(C4)C2)C3)n1Cc1ccc(Cl)cc1 20 to 60%

What measured inhibition at 1 µM goes with CN(C)c1nnc(SCC(=O)C23CC4CC(CC(C4)C2)C3)s1 ? > 60%

State the recorded inhibition at 1 µM for this entry: O=C(CSCc1ccc(Cl)nc1)C12CC3CC(CC(C3)C1)C2 20 to 60%

---

melting point values for the compounds below.

Past entries and their recorded results:
{"Compound": "Cn1c(SCC(=O)C23CC4CC(CC(C4)C2)C3)nnc1-c1cccs1 [Example 102]", "melting point": "156 to 157 °C"}
{"Compound": "Cc1cccc(SCC(=O)C23CC4CC(CC(C4)C2)C3)n1 [Example 26]", "melting point": "115.5 to 116.5 °C"}
{"Compound": "O=C(CS(=O)(=O)c1ccc(C(F)(F)F)cn1)C12CC3CC(CC(C3)C1)C2 [Example 67]", "melting point": "138 to 139 °C"}
{"Compound": "O=C(CSc1ccc(C(F)(F)F)cn1)C12CC3CC(CC(C3)C1)C2 [Example 66]", "melting point": "141 to 142 °C"}
{"Compound": "O=C(CS(=O)(=O)Cc1ccc[n+]([O-])c1)C12CC3CC(CC(C3)C1)C2 [Example 10]", "melting point": "182 to 183.5 °C"}

Tell me the measured melting point of O=C(CCc1cccnc1)C12CC3CC(CC(C3)C1)C2 [Example 39] , please. 43 to 44.5 °C

Can you look up the measured melting point of CC(=O)Nc1nnc([S+]([O-])CC(=O)C23CC4CC(CC(C4)C2)C3)s1 (centres unmarked) [Example 94] for me? 216 to 218 °C

Please give the measured melting point for this compound: O=C(Nc1nnc(S(=O)(=O)CC(=O)C23CC4CC(CC(C4)C2)C3)s1)C1CC1 [Example 97] 209 to 211 °C

Field request: melting point | item: Cn1c(SCC(=O)C23CC4CC(CC(C4)C2)C3)nnc1C1CC1 [Example 101] 96 to 97.5 °C

Name the recorded melting point for O=C(CSc1n[nH]c(-c2ccco2)n1)C12CC3CC(CC(C3)C1)C2 [Example 90] . 177 to 178 °C

Look at this compound and give its reported melting point. O=C(C[S+]([O-])Cc1ccncc1)C12CC3CC(CC(C3)C1)C2 (centres unmarked) [Example 84] 119 to 123 °C
